Measured On: T1, human DLL3 protein (human, UniProt Q9NYJ7 27-492, limits assumed)
T1 construct: Soluble human DLL3 protein used in BLI; also called Delta-like protein 3
T1 sequence (looked up): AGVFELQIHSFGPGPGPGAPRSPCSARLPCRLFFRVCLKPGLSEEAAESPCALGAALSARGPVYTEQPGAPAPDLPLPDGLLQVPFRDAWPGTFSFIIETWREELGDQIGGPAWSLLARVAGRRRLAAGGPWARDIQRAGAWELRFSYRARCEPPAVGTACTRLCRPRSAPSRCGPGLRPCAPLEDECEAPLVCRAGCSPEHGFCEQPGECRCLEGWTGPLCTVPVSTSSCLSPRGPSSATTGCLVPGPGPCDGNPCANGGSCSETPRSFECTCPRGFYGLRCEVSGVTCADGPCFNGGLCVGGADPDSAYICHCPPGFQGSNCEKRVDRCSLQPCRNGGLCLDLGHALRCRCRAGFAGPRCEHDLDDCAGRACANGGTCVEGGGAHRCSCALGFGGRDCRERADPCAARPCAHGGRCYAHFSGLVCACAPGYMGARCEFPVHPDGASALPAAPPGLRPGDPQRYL
Assay Details: BLI, scFv-Fc against human DLL3 protein
Measurement Name: koff (s⁻¹)
Please state the figure in s⁻¹; there is no need to write the unit.

Solved cases below.
Binder | koff [s⁻¹]
Ab.76 scFv-human IgG Fc (Fc fusion, not shown: human IgG Fc) EIVMTQSPATLSVSPGERATLSCRASQSVSSNLAWYRQKPGQAPRLFIYGAYTRATDIPARFSGSGSGTEFTLTISSLQSEDFAVYYCQQYNNWPFTFGPGTKVDIKGGGGSGGGGSGGGGSEVQMVESGGVLVQPGMSLRLSCAASGFTFDDYAMHWVRQPPGKGLEWVSVISWNSGSIGYADSVKGRFTISRDNAKNSLYLQMNSLRAEDTAFYYCAKDLEGGVMDFDYWGQGTLVTVSS | 0.000288
Ab.67 scFv-human IgG Fc (Fc fusion, Tested as scFv-human IgG Fc; not shown: human IgG Fc) DVVVTQSPLSLPVTLGQPASISCRSSQSLVYSDGNTYLNWFQQRPGQSPRRLVYQVSNRDSGVPDRFSGSGSGTDFTLKISGMEAEDAGVYYCMQGTHWPHTFGQGTKLEIKGGGGSGGGGSGGGGSEVHLVESGGGLVQPGGSLKLSCAASGFIFSGSSMHWVRQASGKGLEWIGRIRNKANNYATSYGASVQGRFTMSRDDSKNTAYLQMNSLKAEDTAVYYCTYLSGEFWGQGTLVTVSS | 0.000182

Measured koff of AMG757 (anti-DLL3 scFv from Amgen's patent, positive control) scFv-human IgG Fc (Fc fusion, not shown: human IgG Fc) EIVLTQSPGTLSLSPGERVTLSCRASQRVNNNYLAWYQQRPGQAPRLLIYGASSRATGIPDRFSGSGSGTDFTLTISRLEPEDFAVYYCQQYDRSPLTFGCGTKLEIKGGGGSGGGGSGGGGSQVQLQESGPGLVKPSETLSLTCTVSGGSISSYYWSWIRQPPGKCLEWIGYVYYSGTTNYNPSLKSRVTISVDTSKNQFSLKLSSVTAADTAVYYCASIAVTGFYFDYWGQGTLVTVSS : 3.03e-05
